# maps each entry to its Relative affinity (Binding potency) compared to JI-38
- Assayed target: T1, GHRH receptor (membrane receptors of human anterior pituitary cells) (human, UniProt Q02643 23-423)
- T1 construct: whole, on cells; Native receptor in a membrane fraction of purchased normal human pituitaries, not intact cells; also called hGHRH receptor; human pituitary membrane homogenates
- T1 sequence (looked up): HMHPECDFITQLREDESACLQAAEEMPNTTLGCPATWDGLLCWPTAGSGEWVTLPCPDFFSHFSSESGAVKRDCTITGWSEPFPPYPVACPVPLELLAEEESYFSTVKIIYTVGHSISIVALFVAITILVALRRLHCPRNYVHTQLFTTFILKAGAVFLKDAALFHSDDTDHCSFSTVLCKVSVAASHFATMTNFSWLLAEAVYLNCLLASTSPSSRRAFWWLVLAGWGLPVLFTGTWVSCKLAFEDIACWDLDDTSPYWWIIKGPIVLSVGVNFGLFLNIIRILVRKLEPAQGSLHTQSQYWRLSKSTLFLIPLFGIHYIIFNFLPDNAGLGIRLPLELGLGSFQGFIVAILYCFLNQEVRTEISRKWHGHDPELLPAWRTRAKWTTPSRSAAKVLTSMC
- Protocol details: competition with 125I-[His1,Nle27]hGHRH(1-32)NH2, human pituitary membranes
Non-standard residues stand in square brackets, D forms with d. No end group written: not given here. *: point of attachment. NMeY = CN[C@@H](Cc1ccc(O)cc1)C(=O)O; Agmatine = N=C(N)NCCCCN*; Nle = CCCC[C@H](N)C(=O)O; Orn = NCCC[C@H](N)C(=O)O; Abu = CC[C@H](N)C(=O)O
Write it as a number; the unit JI-38 = 1 goes unstated.

Worked cases, Relative affinity (Binding potency) compared to JI-38 given:
- Binder: "[NMeY][dA]DAIFTTSYR[Orn]VL[Abu]QLSAR[Orn]LLQDI[Nle]DR-NHMe (also called MR-410; Peptide 27410) [P-27410 [N-Me-Tyr^1, D-Ala^2, Thr^8, Orn^12, Abu^15, Orn^21, Nle^27, Asp^28]hGHRH(1-29)NH-CH3]"
  Uom: "JI-38 = 1"
  Test value: 2.14
- Binder: "[NMeY][dA]DAIFTQSYR[Orn]VL[Abu]QLSAR[Orn]LLQDI[Nle]DR-NHMe [P-27403 [N-Me-Tyr^1, D-Ala^2, Gln^8, Orn^12, Abu^15, Orn^21, Nle^27, Asp^28]hGHRH(1-29)NH-CH3]"
  Uom: "JI-38 = 1"
  Test value: 3.69
- Binder: "[NMeY][dA]DAIFTNSYR[Orn]VL[Abu]QLSAR[Orn]LLQDI[Nle]D[Agmatine] (also called Peptide 20367) [P-20367 [N-Me-Tyr^1, D-Ala^2, Orn^12, Abu^15, Orn^21, Nle^27, Asp^28, Agm^29]hGHRH(1-29)NH2]"
  Uom: "JI-38 = 1"
  Test value: 2.51
- Binder: "[NMeY][dA]DAIFTQSYR[Orn]VL[Abu]QLSAR[Orn]LLQDI[Nle]DR-NHEt (also called MR-420; Peptide 28420) [P-28420 [N-Me-Tyr^1, D-Ala^2, Gln^8, Orn^12, Abu^15, Orn^21, Nle^27, Asp^28]hGHRH(1-29)NH-CH2-CH3]"
  Uom: "JI-38 = 1"
  Test value: 1.01
- Binder: "[NMeY][dA]DAIFTQSYR[Orn]VL[Abu]QLSAR[Orn]LLQDI[Nle]D[Agmatine] (also called Peptide 20361) [P-20361 [N-Me-Tyr^1, D-Ala^2, Gln^8, Orn^12, Abu^15, Orn^21, Nle^27, Asp^28, Agm^29]hGHRH(1-29)NH2]"
  Uom: "JI-38 = 1"
  Test value: 2.3
- Binder: "[NMeY][dA]DAIFTNSYR[Orn]VL[Abu]QLSAR[Orn]LLQDI[Nle]DR-NHMe (also called MR-409; Peptide 27409) [P-27409 [N-Me-Tyr^1, D-Ala^2, Orn^12, Abu^15, Orn^21, Nle^27, Asp^28]hGHRH(1-29)NH-CH3]"
  Uom: "JI-38 = 1"
  Test value: 2.71

Field: next binder
Consider the binder shown here: [NMeY][dA]DAIFTNSYR[Orn]VL[Abu]QLSAR[Orn]LLQDI[Nle]DR-NHEt (also called MR-421; Peptide 28421) [P-28421 [N-Me-Tyr^1, D-Ala^2, Orn^12, Abu^15, Orn^21, Nle^27, Asp^28]hGHRH(1-29)NH-CH2-CH3] What is its recorded Relative affinity (Binding potency) compared to JI-38?
0.9
